molecular target: T1, Human VSIG4-L-Fc (human); test: ELISA, IgG 50 nM on coated antigen;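 note: Mouse-human chimeric IgG4 antibodies incubated 1 h on plate-coated VSIG4 proteins, bound IgG detected with HRP-labelled anti-human IgG, irrelevant antibody and protein as specificity controls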
T1 construct: also called hVSIG4-L-Fc; hVSIG4-L
T1 sequence (chain, as listed by the source limits assumed): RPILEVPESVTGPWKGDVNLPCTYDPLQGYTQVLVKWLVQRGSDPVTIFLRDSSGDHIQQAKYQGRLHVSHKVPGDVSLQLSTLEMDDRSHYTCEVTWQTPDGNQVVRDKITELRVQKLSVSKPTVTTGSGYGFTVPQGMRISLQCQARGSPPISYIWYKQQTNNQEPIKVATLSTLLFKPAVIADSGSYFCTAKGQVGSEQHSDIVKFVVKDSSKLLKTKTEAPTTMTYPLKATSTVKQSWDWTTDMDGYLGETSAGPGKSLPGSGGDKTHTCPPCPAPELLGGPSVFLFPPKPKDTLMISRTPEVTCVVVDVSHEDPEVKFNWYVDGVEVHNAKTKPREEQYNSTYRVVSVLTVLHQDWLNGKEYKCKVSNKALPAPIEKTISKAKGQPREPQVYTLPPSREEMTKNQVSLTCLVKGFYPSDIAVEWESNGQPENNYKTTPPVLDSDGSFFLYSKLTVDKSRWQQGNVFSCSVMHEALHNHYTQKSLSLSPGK
Each item that follows carries a reported ELISA OD450.
Report only the number, with the unit OD450 understood.

binder | ELISA OD450, OD450
15C04 mouse/human chimeric IgG4 (S228P) kappa (antibody, V domains shown) VH: QIQLQESGPSLVRPSQTLSLTCSVTGDSITSGYWNWIRKFPGDKLEYLGYISYSGFTYYNPSLKSRISITRDTSKNQYYLQLNSVTTEDTATYYCASSYYGSSLGFPYWGQGTLVTVSA VL: DVVMTQTPLSLPVSLGDQASISCRSSQSLVHSNGNTYLHWYLQKPGQSPKLLIYKVSNRFSGVPDRFSGSGSGTDFTLKISRVEAEDLGVYFCSQSTHVPWTFGGGTKLEIKR | 4.43
15A06 mouse/human chimeric IgG4 (S228P) kappa (antibody, V domains shown) VH: QVQMKQSGPSLVRPSQTLSLTCSVTGDSITSGYWNWIRKFPGDKFEYLGYISYSGFTYYNPSLKSRVSITRDTSKNQYYLQLHSVTTEDTATYYCASSKYGSSLGFPYWGQGTLVTVSA VL: DVVMTQTPLSLPVSLGDQASISCRSSQSLVHSNGNTYLHWYLQKPGQSPKLLIYKVSNRFSGVPDRFSGSGSGTDFTLKISRVEAEDLGVYFCSQSTHVPFTFGSGTKLEIKR | 4.38
15C03 mouse/human chimeric IgG4 (S228P) kappa (antibody, V domains shown) VH: EVKLLESGPGLVKPSQSLSLTCTVTGYSITSDYAWNWIRQFPGNKLEWMGYISYSGSTRYNPSLKSRISITRDTSNNQFFLQLNSVTTEDTATYYCARSGYAAMDYWGQGTSVTVSS VL: ENVLTQSPAIMSASPGEKVTMTCRASSSVSSSYLHWYQQKSGASPKLWIYSTSNLASGVPARFSGSGSGTSYSLTISSVEAEDAATYYCQQYSGYPLTFGSGTKLEIKR | 4.4

# input binder: 16E10 mouse/human chimeric IgG4 (S228P) kappa (antibody, V domains shown) VH: QVQLQQSGAELVRPGTSVKISCKASGYTFTNYWLGWVKQRPGHGLEWIGDIYPGGGYTNYNEKFKGKATLTADTSSSTAYMQLSSLTSEDSAVYFCAKFYYYGSSYYFDSWGQGTTLTVSS VL: DIVLTQSPSSLSVSAGEKVTLSCKSSQSLLNSGNQENYLAWYQQKPGQPPKLLIYGASTRESGVPDRFTGSGSGTDFTLTISSVQAEDLAVYYCQNDHSYPLTFGAGTKLELKR ; wanted: its ELISA OD450 4.44
